system: Echinochloa crus-galli (ECHCG); assay: E. Herbicidal post-emergence efficacy, ECHCG; format: in vivo; details: application rate 80 g/ha
MEASURED_QUANTITY: Post-emergence efficacy against ECHCG in % (%)
Value expressed in %; do not type the unit.

Example results:
{"SMILES_REPRESENTATION": "O=S(=O)(CCC(F)(F)F)Oc1ccccc1Oc1ncc(Cl)cn1", "ASSAY_RESULT": 90}
{"SMILES_REPRESENTATION": "O=S(=O)(CCC(F)=C(F)F)Oc1c(F)cccc1Oc1ncc(Cl)cn1", "ASSAY_RESULT": 80}
{"SMILES_REPRESENTATION": "O=S(=O)(CCCC(F)(F)F)Oc1c(F)cccc1Oc1ncc(Cl)cn1", "ASSAY_RESULT": 100}
{"SMILES_REPRESENTATION": "Cc1cccc(Oc2ncc(Cl)cn2)c1OS(=O)(=O)CCCCl", "ASSAY_RESULT": 90}

Q: # Post-emergence efficacy against ECHCG in % lookup, item `O=S(=O)(CC1CC(F)(F)C1)Oc1c(F)cccc1Oc1ncc(Cl)cn1`
Ans: 100

Q: Name the recorded Post-emergence efficacy against ECHCG in % for `O=S(=O)(CCCC(F)(F)F)Oc1c(Cl)cccc1Oc1ncc(Cl)cn1` .
Ans: 90

Q: Given the molecule `O=S(=O)(CCCC(F)(F)F)Oc1ccccc1Oc1ncc(Cl)cn1` , what is its reported Post-emergence efficacy against ECHCG in %?
Ans: 90

Q: Name the recorded Post-emergence efficacy against ECHCG in % for `O=S(=O)(CCC(F)(F)F)Oc1c(F)cccc1Oc1ncc(Br)cn1` .
Ans: 100

Q: Any idea what its Post-emergence efficacy against ECHCG in % is? The molecule is `O=S(=O)(CCC(F)(F)F)Oc1c(F)cccc1Oc1ncc(Cl)cn1`
Ans: 100

====

Examples of molecules with documented Pre-emergence efficacy against VERPE in % follow.
tested on: Veronica persica (VERPE); assay: A. Herbicidal pre-emergence efficacy, VERPE; type: in vivo; details: 1280 g/ha

{"MOLECULE": "O=S(=O)(CCCCl)Oc1ccccc1Oc1ncc(F)cn1 [Example I-5]", "ASSAY_RESULT": "100%"}
{"MOLECULE": "O=S(=O)(CCCC(F)(F)F)Oc1c(Br)cccc1Oc1ncc(Cl)cn1 [Example I-30]", "ASSAY_RESULT": "100%"}
{"MOLECULE": "Cc1cccc(Oc2ncc(F)cn2)c1OS(=O)(=O)CCCC(F)(F)F [Example I-46]", "ASSAY_RESULT": "100%"}

// next entry
Q: What value of Pre-emergence efficacy against VERPE in % has been recorded for this entry: O=S(=O)(CCCC(F)(F)F)Oc1c(Cl)cccc1Oc1ncc(Cl)cn1 [Example I-39]
Ans: 100%

====

test system: Kochia scoparia (KCHSC); test: B. Herbicidal post-emergence efficacy, KCHSC; assay type: in vivo; details: 80 g/ha, rated visually after about 3 weeks
Measured Post-emergence efficacy against KCHSC in % by item
Answer in %, number only, no unit symbol.

Q: Field request: Post-emergence efficacy against KCHSC in % | item: O=S(=O)(CCCC(F)(F)F)Oc1ccccc1Oc1ncc(Cl)cn1 [Example I-10]
Ans: 90

====

Post-emergence efficacy against KCHSC in % overview
tested on: Kochia scoparia (KCHSC); assay: B. Herbicidal post-emergence efficacy, KCHSC; format: in vivo; details: 80 g/ha, rated visually after about 3 weeks

{"COMPOUND": "O=S(=O)(CCCC(F)(F)C(F)(F)F)Oc1c(Br)cccc1Oc1ncc(Cl)cn1 [Example I-67]", "ASSAY_RESULT": "90%"}
{"COMPOUND": "O=S(=O)(CCC(F)(F)F)Oc1c(F)cccc1Oc1ncc(F)cn1 [Example I-47]", "ASSAY_RESULT": "100%"}
{"COMPOUND": "O=S(=O)(CCC(F)(F)F)Oc1c(Br)cccc1Oc1ncc(Cl)cn1 [Example I-31]", "ASSAY_RESULT": "90%"}
{"COMPOUND": "O=S(=O)(CCC(F)(F)F)Oc1c(F)cccc1Oc1ncc(Br)cn1 [Example I-40]", "ASSAY_RESULT": "90%"}
{"COMPOUND": "O=S(=O)(CCCCl)Oc1ccccc1Oc1ncc(Cl)cc1F [Example I-64]", "ASSAY_RESULT": "90%"}
{"COMPOUND": "O=S(=O)(CCCC(F)(F)F)Oc1c(F)cccc1Oc1ncc(Br)cn1 [Example I-41]", "ASSAY_RESULT": "90%"}

Q: Form field: reported Post-emergence efficacy against KCHSC in % of O=S(=O)(CCCC(F)(F)F)Oc1c(F)cccc1Oc1ncc(Cl)cn1 [Example I-49]
Ans: 90%

Q: Return reported Post-emergence efficacy against KCHSC in %; argument: N#Cc1cccc(Oc2ncc(Cl)cn2)c1OS(=O)(=O)CC1CC(F)(F)C1 [Example I-79]
Ans: 90%

Q: Please report the recorded Post-emergence efficacy against KCHSC in % for O=S(=O)(CCCCl)Oc1c(F)cccc1Oc1ncc(Cl)cn1 [Example I-14] .
Ans: 100%

Q: I have this compound here, O=S(=O)(CCCC(F)(F)F)Oc1c(F)cccc1Oc1ncc(F)cn1 [Example I-42] , and I need its recorded Post-emergence efficacy against KCHSC in %.
Ans: 90%

Q: What value of Post-emergence efficacy against KCHSC in % has been reported for the following compound? CCCCS(=O)(=O)Oc1ccccc1Oc1ncc(Cl)cn1 [Example I-6]
Ans: 90%

Q: Name the reported Post-emergence efficacy against KCHSC in % value associated with the compound O=S(=O)(CC1CC(F)(F)C1)Oc1c(F)cccc1Oc1ncc(Cl)cn1 [Example I-53]
Ans: 90%

Q: # lookup: Post-emergence efficacy against KCHSC in % of CCS(=O)(=O)Oc1ccccc1Oc1ncc(Cl)cn1 [Example I-16]
Ans: 90%

Q: Can you share its Post-emergence efficacy against KCHSC in %? I mean this compound: O=S(=O)(CCC(F)(F)F)Oc1c(F)cccc1Oc1ncc(Cl)cn1 [Example I-48]
Ans: 90%

Q: Quick check: Post-emergence efficacy against KCHSC in % of O=S(=O)(CCCC(F)(F)F)Oc1c(Br)cccc1Oc1ncc(F)cn1 [Example I-44] ?
Ans: 100%

Q: Any idea what Post-emergence efficacy against KCHSC in % was measured for O=S(=O)(CCCCl)Oc1ccccc1Oc1ncc(Cl)cn1 [Example I-2] ?
Ans: 100%

Q: // query Post-emergence efficacy against KCHSC in % value for entry CS(=O)(=O)Oc1ccccc1Oc1ncc(Cl)cn1 [Example I-1]
Ans: 90%

Q: Give its Post-emergence efficacy against KCHSC in % value. Item: CCCCCS(=O)(=O)Oc1ccccc1Oc1ncc(Cl)cn1 [Example I-24]
Ans: 90%

Q: Which Post-emergence efficacy against KCHSC in % is listed for O=S(=O)(CCCCl)Oc1ccccc1Oc1ncc(F)cn1 [Example I-5] ?
Ans: 100%
